Listed compounds paired with reported inhibition in vivo at 0.39 mg/kg
# Test system: Ehrlich ascites carcinoma
# assay_notes: Preventive effect against the growth of Ehrlich ascites carcinoma (Method A)
# Assay type: in vivo, mice (ICR, female)
# run_conditions: Mus musculus, Ehrlich, ip, 120 h; 0.39 mg/kg/day i.p., 5 days; read-out: Inhibition ratio
Report the value in % with no unit label.

The measured inhibition in vivo at 0.39 mg/kg associated with O=NN(CCCl)C(=O)N(CC1CC1)C1O[C@H](CO)[C@H](O)[C@H](O)[C@H]1O (stereo partly drawn) reads 21.1

# inhibition in vivo at 0.39 mg/kg of O=NN(CCCl)C(=O)N(Cc1ccco1)C1O[C@H](CO)[C@@H](O)[C@H]1O (stereo partly drawn) = 18.4

The compound identified as O=NN(CCCl)C(=O)N(Cc1cccs1)C1OC[C@H](O)[C@H](O)[C@H]1O (stereo partly drawn) registered its inhibition in vivo at 0.39 mg/kg at 54

* * *

# assay_notes: Preventive effect against the growth of Ehrlich ascites carcinoma (Method A)
# Format: in vivo, mice (ICR, female)
# run_conditions: mouse, in vivo, ip; max dose, 100% inhibition without death; doses of the table in mg/kg/day; read-out: MTD (Maximum Tolerated Dose)
endpoint: MTD at 168 h
Please don't drop the unit; write it after the number.

The examples below pair each entry with its known result.
[
  {
    "compound": "O=NN(CCCl)C(=O)N(Cc1ccco1)C1O[C@H](CO)[C@@H](O)[C@H]1O (stereo partly drawn)",
    "readout_value": "100 mg/kg/day"
  },
  {
    "compound": "CC(c1ccccc1)N(C(=O)N(CCCl)N=O)C1O[C@H](CO)[C@@H](O[C@H]2O[C@H](CO)[C@@H](O)[C@H](O)[C@H]2O)[C@H](O)[C@H]1O (stereo partly drawn)",
    "readout_value": "400 mg/kg/day"
  }
]

Next item in the queue.
Short answer for Cc1ccc(CN(C(=O)N(CCCl)N=O)C2O[C@H](CO)[C@@H](O[C@H]3O[C@H](CO)[C@@H](O)[C@H](O)[C@H]3O)[C@H](O)[C@H]2O)cc1 (stereo partly drawn) : MTD at 168 h was 400 mg/kg/day

* * *

Recorded 60-day survivors (mice survived/mice used) by entry
# System: Leukemia L-1210
# assay_notes: Effect on life span of mice implanted with leukemic cells of L-1210 (Method B)
# Format: in vivo, mice (BDF1, male)
# run_conditions: 25 mg/kg/day i.p., 5 days

Past entries and their recorded results:
[
  {
    "compound": "O=NN(CCCl)C(=O)N(CC1CC1)C1O[C@H](CO)[C@H](O)[C@H](O)[C@H]1O (stereo partly shown) [Compound 8]",
    "measured_on": "Leukemia L-1210",
    "readout_value": "4/4"
  },
  {
    "compound": "O=NN(CCCl)C(=O)N(Cc1ccccc1)C1O[C@H](CO)[C@@H](O[C@H]2O[C@H](CO)[C@@H](O)[C@H](O)[C@H]2O)[C@H](O)[C@H]1O (stereo partly shown) [Compound 1]",
    "measured_on": "Leukemia L-1210",
    "readout_value": "0/4"
  },
  {
    "compound": "O=NN(CCCl)C(=O)N(CC1CCCO1)C1O[C@H](CO)[C@H](O)[C@H](O)[C@H]1O (stereo partly shown) [Compound 9]",
    "measured_on": "Leukemia L-1210",
    "readout_value": "4/4"
  },
  {
    "compound": "COc1ccc(CN(C(=O)N(CCCl)N=O)C2O[C@H](CO)[C@@H](O[C@H]3O[C@H](CO)[C@@H](O)[C@H](O)[C@H]3O)[C@H](O)[C@H]2O)cc1 (stereo partly shown) [Compound 3]",
    "measured_on": "Leukemia L-1210",
    "readout_value": "0/4"
  },
  {
    "compound": "O=NN(CCCl)C(=O)N(Cc1cccs1)C1OC[C@H](O)[C@H](O)[C@H]1O (stereo partly shown) [Compound 13]",
    "measured_on": "Leukemia L-1210",
    "readout_value": "2/4"
  }
]

60-day survivors (mice survived/mice used) in this record for O=NN(CCCl)C(=O)N(CC1CC1)C1OC[C@H](O)[C@H](O)[C@H]1O (stereo partly shown) [Compound 10] : 4/4

Summary for this compound, O=NN(CCCl)C(=O)N(Cc1ccco1)C1O[C@H](CO)[C@@H](O[C@H]2O[C@H](CO)[C@@H](O)[C@H](O)[C@H]2O)[C@H](O)[C@H]1O (stereo partly shown) [Compound 6] : 60-day survivors (mice survived/mice used) is 0/4

* * *

Documented ILS across a set of compounds
# Tested on: Leukemia L-1210
# assay_notes: Effect on life span of mice implanted with leukemic cells of L-1210 (Method B)
# Assay type: in vivo, mice (BDF1, male)
# run_conditions: 25 mg/kg/day i.p., 5 days

These recorded examples may help you get a feel for the data.
[
  {
    "compound": "O=NN(CCCl)C(=O)N(CC1CC1)C1OC[C@H](O)[C@H](O)[C@H]1O (stereo partly shown)",
    "measured_on": "Leukemia L-1210",
    "ILS": "> 721.9%"
  },
  {
    "compound": "O=NN(CCCl)C(=O)N(CC1CCCO1)C1O[C@H](CO)[C@H](O)[C@H](O)[C@H]1O (stereo partly shown)",
    "measured_on": "Leukemia L-1210",
    "ILS": "> 689.5%"
  },
  {
    "compound": "O=NN(CCCl)C(=O)N(CC1CC1)C1O[C@H](CO)[C@H](O)[C@H](O)[C@H]1O (stereo partly shown)",
    "measured_on": "Leukemia L-1210",
    "ILS": "> 650.0%"
  }
]

From here, focus on the item given below.
Reported ILS ( O=NN(CCCl)C(=O)N(Cc1cccs1)C1OC[C@H](O)[C@H](O)[C@H]1O (stereo partly shown) ) = > 442.9%

Attribution: patent US4241052A
